# Tested on: SKOV3
# protocol_notes: Primary qHTS to identify gynecologic anti-cancer compounds using libraries of approved drugs and bioactive compounds (AID 1345084); further: nearly all actives have a fitted effect of over 55% in size
# test_conditions: Gynecologic cancer cell panel viability, ATPlite luminescence, 48 h; series mostly up to 57.5 µM
Records with an inconclusive call do not appear. Active and inactive are the calls of the source. The call rests on the fitted dose curve; in most records, active means well fitted cell-killing curve with a large enough effect; inconclusive means small, poorly fitted or top-dose-only effect, or effect the other way; inactive means flat fitted curve, though single readings scatter.
Just give me one of these, please: T for active, F for inactive

Query string: So what was the verdict on COC(=O)c1ccc(N2CCN(C)CC2)c(NC(=O)c2cccc(OC)c2)c1 in this test?
Result string: F

Query string: And for Cc1nc(N2CCN(C(=O)c3ccco3)CC2)c2c3c(sc2n1)CCCC3 ?
Result string: F

Query string: And for CC(F)(F)CN1CCOc2c(nn(-c3ccccc3Cl)c2-c2ccc(Cl)cc2)C1=O ?
Result string: F

Query string: And for C=C1C(=O)O[C@@H]2/C=C(\C)CC/C=C(/C=O)[C@H](OC)[C@@H](OC(=O)C(C)C)[C@@H]12 ?
Result string: F

Query string: And for COc1ccccc1C(=O)Nc1cccc(NC(=O)c2cccc(C)c2)c1 ?
Result string: F

Query string: And for CC(C)(C)c1ccc(NC(=O)N2CCN(c3ncccc3Cl)CC2)cc1 ?
Result string: T

Query string: And for CCC[C@H](N[C@H]1CCc2cc(F)cc(F)c2C1)C(=O)Nc1cn(C(C)(C)CNCC(C)(C)C)cn1 ?
Result string: F

Query string: And for Cc1cc(-c2ncc(-c3cccnc3)cc2/C=C/c2ccccc2)cnc1-c1cccnc1 ?
Result string: F

Query string: And for Cc1cc(C)c(S(=O)(=O)n2cc(C)cc2C)c(C)c1 ?
Result string: F

Query string: And for COc1cc(N2CCC(N)CC2)ccc1Nc1ncc(Cl)c(-c2c[nH]c3ccccc23)n1 ?
Result string: T

Query string: And for COc1ccccc1N1CCN(CC[C@@](C)(C(=O)C2CCCCC2)c2ccccc2)CC1 ?
Result string: F

Query string: And for C=CC(=O)N1CC(N2CCN(C(=O)CNc3cc(C4CC4)c(Cl)cc3O)CC2)C1 ?
Result string: F

Query string: And for O=C([C@@H]1CCCN(c2ccc3[nH]c(C4(n5cc(Cl)cn5)CC4)nc3n2)C1)N1CCCC1 ?
Result string: F

Query string: And for CO[C@H]1O[C@@H]2O[C@@]3(C)CCC4[C@H](C)CCC([C@H]1C)[C@]42OO3 (stereo partly drawn) ?
Result string: F

Query string: And for C/C=C(\C)C(=O)O[C@@H]1[C@@H](C)[C@]2(O)[C@@H]3C=C(C)C(=O)[C@H]3CC(CO)=C[C@H]2C2C(C)(C)[C@@]21OC(=O)C(C)CC (stereo partly drawn) ?
Result string: F

Query string: And for COc1c(C(O)CC(C)C)ccc2c1C(=O)OCc1cc(C)cc(O)c1O2 (stereo not drawn) ?
Result string: F

Query string: And for Cn1ncc(Cl)c1-c1cc(C(=O)N[C@H](CN)Cc2ccc(F)c(F)c2)sc1Cl ?
Result string: T

Query string: And for Cc1nnc(-c2ccc(-c3ccc(C(=O)Nc4ccc(O)c(N5CCN(C)CC5)c4)cc3)c(C)c2)o1 ?
Result string: F

Query string: And for C=CS(=O)(=O)NC1CCN(C(=O)CNc2cc(I)c(Cl)cc2OC)CC1 ?
Result string: F

Query string: And for Cc1sc2c(c1C)C(c1ccc(Cl)cc1)=N[C@@H](CC(=O)Nc1ccc(OCCOCCOCCOCCNc3cccc4c3C(=O)N(C3CCC(=O)NC3=O)C4=O)cc1)c1nnc(C)n1-2 (stereo partly drawn) ?
Result string: T

Query string: And for O[C@@](Cc1ncc(CC2(C(F)(F)F)CC2)[nH]1)(c1ccc(-n2cccn2)cc1)C(F)(F)F ?
Result string: F

Query string: And for C=C1CC2OC(=O)C(=C)C2C(O)/C=C(\C)CCC1O (stereo not drawn) ?
Result string: F

Query string: And for CC(C)(C)C1CCN(C(=O)n2ncc(C(O)(c3ccccc3)c3ccccc3)n2)CC1 ?
Result string: F

Query string: And for O=[N+]([O-])c1cn2c(n1)OC[C@@H](OCc1ccc(-c3ccc(OC(F)(F)F)cc3)nc1)C2 ?
Result string: F

Query string: And for CCCCOc1ccc(S(=O)(=O)n2c(C)nc3ccccc32)cc1 ?
Result string: F

Query string: And for COc1c2c(c(C)c3c1C(=O)OC3)O[C@@]1(C)C[C@@H](OC(C)=O)[C@]34O[C@](OC)(CC[C@]3(C)[C@H]1C2)OC4(C)C ?
Result string: F

Query string: And for CNC(=O)COC(=O)N1CCC(CCc2ccc(Cl)cc2)CC1 ?
Result string: F

Query string: And for Cc1cccc(C#Cc2cc(F)cc(C#N)c2)n1 ?
Result string: F
